Numbers sourced from patent US20190048052A1.

system: S. aureus USA300; type: cell-based, Staphylococcus aureus; conditions: USA300, pH 6.8
Residues, ends and D or L forms follow the SMILES beside them.
PARAMETER: Antimicrobial activity (MIC) pH 6.8 (μM)
Dear colleague, please return just the value in μM, with no unit written.

Given the compound CC[C@H](C)[C@H](NC(=O)[C@H](CCCNC(=N)N)NC(=O)[C@H](CCCCN)NC(=O)[C@H](CC(C)C)NC(=O)[C@H](Cc1c[nH]c2ccccc12)NC(=O)[C@H](Cc1c[nH]c2ccccc12)NC(=O)[C@@H](N)Cc1c[nH]c2ccccc12)C(=O)N[C@@H](Cc1c[nH]c2ccccc12)C(N)=O [TetraF2W-KR, WWWLKRIW] (H-WWWLKRIW-NH2; N-terminus and C-terminus assumed) , what is its reported Antimicrobial activity (MIC) pH 6.8?
6.2

Given the compound CC[C@H](C)[C@H](NC(=O)[C@H](CCCCN)NC(=O)[C@H](CCCCN)NC(=O)[C@H](CC(C)C)NC(=O)[C@H](Cc1c[nH]c2ccccc12)NC(=O)[C@H](Cc1c[nH]c2ccccc12)NC(=O)[C@@H](N)Cc1c[nH]c2ccccc12)C(=O)N[C@@H](Cc1c[nH]c2ccccc12)C(N)=O [TetraF2W-KK, WWWLKKIW] (H-WWWLKKIW-NH2; N-terminus and C-terminus assumed) , what is its reported Antimicrobial activity (MIC) pH 6.8?
12.5

Given the compound CC[C@H](C)[C@H](NC(=O)[C@H](CCCNC(=N)N)NC(=O)[C@H](CCCNC(=N)N)NC(=O)[C@H](CC(C)C)NC(=O)[C@H](Cc1c[nH]c2ccccc12)NC(=O)[C@H](Cc1c[nH]c2ccccc12)NC(=O)[C@@H](N)Cc1c[nH]c2ccccc12)C(=O)N[C@@H](Cc1c[nH]c2ccccc12)C(N)=O [TetraF2W-RR, WWWLRRIW] (H-WWWLRRIW-NH2; N-terminus assumed) , what is its reported Antimicrobial activity (MIC) pH 6.8?
6.2

Given the compound CC[C@H](C)[C@H](NC(=O)[C@H](CCCCN)NC(=O)[C@H](CCCNC(=N)N)NC(=O)[C@H](CC(C)C)NC(=O)[C@H](Cc1c[nH]c2ccccc12)NC(=O)[C@H](Cc1c[nH]c2ccccc12)NC(=O)[C@@H](N)Cc1c[nH]c2ccccc12)C(=O)N[C@@H](Cc1c[nH]c2ccccc12)C(N)=O [TetraF2W-RK, WWWLRKIW] (H-WWWLRKIW-NH2; N-terminus assumed) , what is its reported Antimicrobial activity (MIC) pH 6.8?
6.2
